Molecular target: Glucocorticoid receptor (Homo sapiens)
Test: qHTS assay to identify small molecule antagonists of the glucocorticoid receptor (GR) signaling pathway (AID 720692)
Conditions: GR-bla HeLa, beta-lactamase FRET ratio, dexamethasone-stimulated, 18 h; series mostly up to 58.5 µM
Results filed as inconclusive are left out. Calls of active or inactive are those of the source. Calls come from the whole dose curve; as a rule, active = well fitted inhibition curve with a large enough effect in the signal ratio in the repeat runs (not every such curve was filed as active); inconclusive = weak or mixed curves, or effect the other way; inactive = no such curve, though single readings can be large or run the other way; the % refers to the signal ratio.
Possible outcomes: active, inactive

O=[N+]([O-])c1ccc(F)c(Cl)c1: inactive
CN1CCN(Cc2cc(-c3ccc4[nH]c(=O)oc4c3)co2)[C@@H](c2ccc(F)cc2)C1: active
CCc1ccc(Br)cc1: inactive
Nc1nc2c(ncn2COCCO)c(=O)[nH]1: inactive

---

Experiment: qHTS assay for small molecules that induce genotoxicity in human embryonic kidney cells expressing luciferase-tagged ATAD5 - cell viability (AID 651634); note: nearly all actives have a fitted effect of over 25% in size
Conditions: HEK293T ATAD5-luc cells viability, CellTiter-Fluor, 15.5 h; series mostly up to 83.3 µM
Records with an inconclusive call do not appear. Activity calls are given as the source filed them. The call rests on the fitted dose curve.
Outcomes: true (1) = active, false (0) = inactive

CCCC[P+](C)(CCCC)CCCC: false (0)
[Cl][Pt-2]([Cl])([Cl])[Cl]: false (0)
FC(F)(F)c1cccc(Cl)c1: false (0)
CCOc1ccc2ccccc2c1C(=O)N[C@@H]1C(=O)N2[C@@H]1SC(C)(C)[C@@H]2C(=O)O: false (0)
OC[C@@H](O)[C@@H](O)CO: false (0)
O=C(O)c1cc(=O)c2ccccc2o1: false (0)
CCN(CCN)c1cccc(C)c1: false (0)
O=C(/C=C/c1ccccc1)OC/C=C/c1ccccc1: false (0)
COc1c(C)c2c(c(O)c1C/C=C(\C)CCC(=O)OCCN1CCOCC1)C(=O)OC2: false (0)
CC(C)(C)NSc1nc2ccccc2s1: false (0)
COc1ccc2cc1Oc1ccc(cc1)C[C@H]1c3c(cc4c(c3Oc3cc5c(cc3OC)CCN(C)[C@@H]5C2)OCO4)CCN1C: true (1)
Nc1nc(-c2ccccc2)cs1: false (0)
CCCCCC(C)OC(=O)COc1ccc(Cl)c2cccnc12 (stereo not given): false (0)
OC[C@H]1O[C@H](O[C@H]2O[C@H](CO)[C@@H](O)[C@H](O)[C@H]2O)[C@H](O)[C@@H](O)[C@@H]1O: false (0)
OC/C=C/CO: false (0)
CCC(=O)OC(=O)CC: false (0)
O=C(O)[C@H](O)[C@@H](O)[C@H](O[C@@H]1O[C@H](CO)[C@H](O)[C@H](O)[C@H]1O)[C@H](O)CO: false (0)
O=C(O)CN(CCN(CC(=O)O)CC(=O)O)CC(=O)O: false (0)
C#CC1(O)CC[C@H]2[C@@H]3CCC4=CCCC[C@@H]4[C@H]3CC[C@@]21C (stereo not given in full): false (0)
CC(=O)OCC=C(C)C: false (0)
Cc1ccc(C)cc1: false (0)
ClCCl: false (0)
COC(=O)c1ccccc1OC: false (0)
C=Cc1cccc(C)c1: false (0)
C#C[C@]1(O)CC[C@H]2[C@@H]3[C@H](C)CC4=C(CCC(=O)C4)[C@H]3CC[C@@]21C: false (0)

---

Biological target: Cytochrome P450 2C19 (Homo sapiens) (UniProt P33261)
Sequence (P33261 whole entry, looked up): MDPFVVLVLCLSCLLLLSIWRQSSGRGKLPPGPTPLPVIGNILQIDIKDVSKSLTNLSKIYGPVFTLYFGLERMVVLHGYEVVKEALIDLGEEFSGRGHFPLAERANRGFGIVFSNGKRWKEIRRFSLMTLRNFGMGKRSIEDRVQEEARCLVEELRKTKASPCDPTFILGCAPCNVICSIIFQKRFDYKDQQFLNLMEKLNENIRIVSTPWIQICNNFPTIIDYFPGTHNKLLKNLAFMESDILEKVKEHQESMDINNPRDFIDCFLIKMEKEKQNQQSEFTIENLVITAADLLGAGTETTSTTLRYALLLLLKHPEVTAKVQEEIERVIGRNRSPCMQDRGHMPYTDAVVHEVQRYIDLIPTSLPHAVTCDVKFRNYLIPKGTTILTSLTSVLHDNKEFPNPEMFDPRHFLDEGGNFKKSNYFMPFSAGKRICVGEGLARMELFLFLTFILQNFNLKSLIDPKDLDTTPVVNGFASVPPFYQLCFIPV
Test: Cytochrome P450 Family 2 Subfamily C Member 19 (CYP2C19) small molecule antagonists: luciferase reporter qHTS assay (AID 1671197); note: nearly all actives have a fitted effect of over 65% in size
Conditions: P450-Glo CYP2C19 enzyme, luciferin luminescence, 1 h; series mostly up to 115 µM
Records with an inconclusive call do not appear. Calls of active or inactive are those of the source. Calls follow the shape of the dose curve; as a rule, active = well fitted inhibition curve with a large enough effect in the repeat runs; inconclusive = weak or mixed curves; inactive = no such curve, though single readings can be large or run the other way.
Labels: active, inactive

OC1CCCc2ccccc21 (stereo not drawn): inactive
CN1CCCCC1CCN1c2ccccc2Sc2ccc(S(C)=O)cc21 (stereo not drawn): inactive
CC(C)(C)c1csc(-c2cc3cc(OCc4ccccc4CC(=O)O)ccc3o2)n1: inactive
CCCCC(CC)CN1CN(CC(CC)CCCC)CC(C)(N)C1 (stereo not drawn): inactive
O=S(=O)(O)c1ccc(Nc2nc(Nc3ccc(/C=C/c4ccc(Nc5nc(Nc6ccc(S(=O)(=O)O)cc6)nc(N(CCO)CCO)n5)cc4S(=O)(=O)O)c(S(=O)(=O)O)c3)nc(N(CCO)CCO)n2)cc1: inactive
CCCCCCCCCCCC(=O)OCC(C)OC(=O)CCCCC(=O)O (stereo not drawn): inactive
Cl[Si](Cl)(c1ccccc1)c1ccccc1: active
Cc1cc(-n2nc3ccc(Cl)cc3n2)c(O)c(C(C)(C)C)c1: inactive
C=CCCC(=O)/C=C/C1C(C)=CCCC1(C)C (stereo not drawn): active
CCCCCCC1CCCC(=O)O1 (stereo not drawn): inactive
COc1cc(C)ccc1O: active
O=C(O)Cc1ccccc1Nc1c(Cl)cccc1Cl: inactive
OC/C=C/CO: inactive
CCCC(=O)OCOC(=O)C1=C(C)NC(C)=C(C(=O)OC)C1c1cccc(Cl)c1Cl (stereo not drawn): active
Cc1ccc(N/N=c2\c(=O)cc/c(=N\Nc3ccc(S(=O)(=O)O)cc3)c2=O)c(C)c1: active
O=C1OC2(c3ccc(O)cc3Oc3cc(O)ccc32)c2ccc(N=C=S)cc21: active
C=CCn1c(=O)n(CC=C)c(=O)n(CC=C)c1=O: active
CCO[C@@H]1O[C@H](C(COCc2ccccc2)OCc2ccccc2)[C@H](OCc2ccccc2)[C@H]1O (stereo partly drawn): active
